Target: T1, human TSLP (human, UniProt Q969D9 29-159)
T1 construct: also called hTSLP; rhTSLP
Experiment: SPR
In this section we review reported Kd values for a set of binders.

binder: BDG38.117 (antibody, V domains shown, IgG1) VH: QMQLVESGGGVVQPGRSLTLSCAASGFEFRTYGMHWVRQAPGKGLEWVGVIWDDGSNTHYADSVKGRFTITRDNSKNTLNLQMNSLRAEDTAVYYCARAPQWYLTAEAFDLWGQGTMVTVSS VL: SYVLTQPPSVSVAPGETATITCGGNLIGAKLVHWYQQKPGQAPVLVIYDDSDRPSRIPERFSGSNIGNTATLTIEDVEAGDEADYYCQVWDYSSDTMVFGGGTKLTVL
Kd [pM]: 3.82
//
binder: BDG38.110 (antibody, V domains shown, IgG1) VH: QMQLVESGGGVVQPGRSLRLSCAASGFEFRTYGMHWVRQAPGKGLEWVAVIWDDGSNTHYADSVKGRFTITRDNSKNTLNLQMNSLRAEDTAVYYCVRAPQWYLTAEAFDLWGQGTMVTVSS VL: SYILTQPPSVSVAPGETTRITCGGNLIGAKLVHWYQQKPGQAPVLVIYDDSDRPSRIPERFSGSNIGNTATLTIEDVEAGDEADYYCQVWDYSSNHMVFGGGTKLTVL
Kd [pM]: 129
//
binder: BDG38.092 (antibody, V domains shown, IgG1) VH: QMQLVESGGGVVQPGRSLTLSCAASGFEFRTYGMHWVRQAPGKGLEWLAVIWDDGSNTHYADSVKGRFTITRDNSKNTLNLQMNSLRVEDTAVYYCVRAPQWYLTAEAFDLWGQGTMVTVSS VL: SYVLTQPPSVSVAPGETATITCGGNLIGARLVHWYQQKPGQAPVLVIYDDSDRPSRIPERFSGSNIGNTATLTISDVEEGDEADYYCQVWDYYSDHMVFGGGTKLTVL
Kd [pM]: 3.92
//
binder: BDG38.115 (antibody, V domains shown, IgG1) VH: QMQLVESGGGVVQPGRSLTLSCAASGFEFRTYGMHWVRQAPGKGLEWLGVIWYDGSNTHYADSVKGRFTITRDNSKNTLNLQMNSLRAEDTAVYYCVRAPQWYLTAEAFDLWGQGTMVTVSS VL: SYILTQPPSVSVAPGQTATITCGGNLIGARLVHWYQQKPGQAPVLVIYDDSDRPSRIPERFSGSNSGNTATLTISDVEEGDEADYYCQVWDYSSNTYVFGGGTKLTVL
Kd [pM]: 840
//
binder: BDG38.090 (antibody, V domains shown, IgG1) VH: QMQLVESGGGVVQPGRSLTLSCAASGFEFRTYGMHWVRQAPGKGLEWLGVIWDDGSNTHYADSVKGRFTITRDNSKNTLNLQMNSLRVEDTAVYYCARAPQWYLTAEAFDLWGQGTMVTVSS VL: SYILTQPPSVSVAPGETARITCGGNLIGARLVHWYQQKPGQAPVLVVYDDSDRPSRIPERFSGSNIGNTATLTIEDVEEGDEADYYCQVWDYYSDHMVFGGGTKLTVL
Kd [pM]: 11.8
//
binder: BDG38.112 (antibody, V domains shown, IgG1) VH: QMQLVESGGGVVQPGRSLRLSCAASGFEFRTYGMHWVRQAPGKGLEWLGVIWYDGSNTHYADSVKGRFTITRDNSKNTLNLQMNSLRAEDTAVYYCVRAPQWYLTAEAFDLWGQGTMVTVSS VL: SYILTQPPSVSVAPGQTATITCGGNLIGARLVHWYQQKPGQAPVLVIYDDSDRPSRIPERFSGSNIGNTATLTIERVEEGDEADYYCQVWDYSSDTYVFGGGTKLTVL
Kd [pM]: 258
